Entries annotated with measured activity at 1 µM
# System: AR transcriptional activity
# test_method_notes: MMTV-LUC luciferase reporter assay in 22RV1 cells, DHT+ (screening and IC50)
# Type: cell-based
# condition_set: Homo sapiens, 1 uM, with DHT, control = 100
Could you kindly put the unit after your number?

Example entries and their recorded answers appear below.
COC(=O)[C@@]12OC[C@]34[C@H]([C@@H](O)[C@@H]1O)[C@@]1(C)CC(=O)C(O)=C(C)[C@@H]1C[C@H]3OC(=O)[C@H](OC(=O)CC(C)C)[C@@H]24 = 3.6%
COC(=O)[C@@]12OC[C@]34[C@H]([C@@H](O)[C@@H]1O)[C@@]1(C)CC(=O)C(O)=C(C)[C@@H]1C[C@H]3OC(=O)[C@H](OC(=O)/C=C(\C)C(C)C)[C@@H]24 [Bruceantin, bruceantin] = 4.4%
CC1=CC(=O)c2c(O)cccc2C1=O = 143%
COC(=O)[C@@]12OC[C@]34[C@H]([C@@H](O)[C@@H]1O)[C@@]1(C)CC(=O)C(O)=C(C)[C@@H]1C[C@H]3OC(=O)[C@H](OC(=O)C=C(C)C)[C@@H]24 = 4%

Asked: Item `CC(=O)O[C@H](CC=C(C)C)C1=CC(=O)c2c(O)ccc(O)c2C1=O` has what recorded activity at 1 µM?
Given back: 113%

Asked: Consider next the compound `C=C1[C@@H](O)[C@]2(O)OC[C@]34[C@H]2[C@@]2(C)[C@H](O)C(=O)C=C(C)[C@@H]2C[C@H]3OC(=O)[C@H](O)[C@@]14O` in the same way.
Given back: 51.3%

Asked: Consider next the compound COC(=O)[C@]12OC[C@]34[C@H]([C@@H](O)[C@@H]1O)[C@@]1(C)CC(=O)C(O)=C(C)[C@@H]1C[C@H]3OC(=O)[C@H](OC(=O)/C=C(\C)C(C)(C)OC(C)=O)[C@@H]24 [Bruceantinol] in the same way.
Given back: 119%
